tested on: Pigweed, Palmer (palmer amaranth, palmer pigweed, Amaranthus palmeri); assay: Test A1 postemergence, Pigweed, Palmer; type: in vivo; settings: Postemergence, 125 g ai/ha; 0 to 100 scale
Given measured Plant response rating, Pigweed, Palmer, output criterion met if it is greater than or equal to 30 and criterion not met if not.

Compound: CCOC(=O)N(c1cc(C(=O)N2CCC(C)CC2)c(C)cc1C)S(=O)(=O)C(F)(F)F
Group: criterion not met
//
Compound: Cc1cc(C)c(N(COC(=O)C(C)(C)C)S(=O)(=O)C(F)(F)F)cc1C1=NOC2OCCC12 (stereo not shown)
Group: criterion met
//
Compound: Cc1cc(C)c(N(COC(=O)C(C)(C)C)S(=O)(=O)C(F)(F)F)cc1C(=O)N1CCC(F)(F)CC1
Group: criterion met
//
Compound: CCC1ON=C(c2cc(NS(=O)(=O)C(F)(F)F)c(C)cc2C)C1CC (stereo not shown)
Group: criterion met
//
Compound: CCc1cc(C)c(NS(=O)(=O)C(F)(F)F)cc1C1=NOC2CCCC12 (stereo not shown)
Group: criterion met
//
Compound: CCC1CC(c2cc(NS(=O)(=O)C(F)(F)F)c(C)cc2C)=NO1 (stereo not shown)
Group: criterion not met
//
Compound: COC1CCN(C(=O)c2cc(NS(=O)(=O)C(F)(F)F)c(C)c(C)c2C)CC1
Group: criterion met
//
Compound: CCC1ON=C(c2cc(N(COC(=O)C(C)(C)C)S(=O)(=O)C(F)(F)F)c(C)cc2C)C1CC (stereo not shown) [Compound 347]
Group: criterion met
//
Compound: COc1cnn(-c2cc(NS(=O)(=O)C(F)(F)F)c(C)cc2C)c(=O)c1OC
Group: criterion not met
//
Compound: Cc1c(C(=O)N2CCSCC2)cc(N(COC(=O)C(C)(C)C)S(=O)(=O)C(F)(F)F)c(C)c1C
Group: criterion not met
//
Compound: Cc1c(NS(=O)(=O)C(F)(F)F)cc(C(=O)N2CCOCC2)c(C)c1Cl
Group: criterion not met
//
Compound: Cc1cc(F)c(C2=NOC3CCCC23)cc1NS(=O)(=O)C(F)(F)F (stereo not shown)
Group: criterion not met

----------
test system: ragweed (common ragweed, Ambrosia artemisiifolia); test: Test A1 postemergence, ragweed; type: in vivo; conditions: Postemergence, 31 g ai/ha; 0 to 100 scale (0 no effect, 100 complete control); 10 days
Response field label takes Criterion met when Plant response rating, Ragweed is strictly below 50 and Criterion not met in all other cases.

Molecule: Cc1cc(Br)c(C2=NOC3CCCC23)cc1NS(=O)(=O)C(F)(F)F (centres unmarked)
Group: Criterion met
--
Molecule: Cc1c(NS(=O)(=O)C(F)(F)F)cc(C(=O)N2CCOCC2)c(C)c1C
Group: Criterion not met
--
Molecule: Cc1c(NS(=O)(=O)C(F)(F)F)cc(C(=O)N2CCSCC2)c(C)c1C
Group: Criterion met
--
Molecule: CCC1ON=C(c2cc(N(C(=O)OCC(C)C)S(=O)(=O)C(F)(F)F)c(C)cc2C)C1CC (centres unmarked)
Group: Criterion met
--
Molecule: Cc1cc(C)c(N(COC(=O)C(C)(C)C)S(=O)(=O)C(F)(F)F)cc1C(=O)N1CCC(F)(F)CC1
Group: Criterion not met
--
Molecule: Cc1cc(C)c(N(COC(=O)C(C)(C)C)S(=O)(=O)C(F)(F)F)cc1C1=NOC2COCC12 (centres unmarked)
Group: Criterion not met
--
Molecule: Cc1cc(C(F)(F)F)c(C2=NOC3CCCC23)cc1NS(=O)(=O)C(F)(F)F (centres unmarked)
Group: Criterion met
